Below, IC50 values reported for Histone deacetylase 1 (Homo sapiens) across several publications.

{"Smiles Input": "O=C(/C=C/c1ccc(Nc2ncc(Cl)c(OC3CCCCC3)n2)cc1)NO", "IC50": "> 10 µM"}
{"Smiles Input": "O=C(NO)c1ccc(/C=N/NC(=O)c2cc(N3CCOCC3)nc(-c3cccc(O)c3)n2)cc1", "IC50": "> 3 µM"}
{"Smiles Input": "O=C(CCCCCCCn1c2cc3c(cc2c2ncc4ccccc4c21)OCO3)NO", "IC50": "< 0.002 µM"}
{"Smiles Input": "COc1cc(F)ccc1-c1cc(Nc2ccc(/C=C/C(=O)Nc3ccccc3N)cc2)ncc1F", "IC50": "> 20 µM"}
{"Smiles Input": "COc1cc(OC)c(/C=C/S(=O)(=O)Cc2ccc(OC)c(NCC(=O)O)c2)c(OC)c1", "IC50": "> 10 µM"}
